Hey, just so you know, these numbers are from ChEMBL document CHEMBL1255508.

# Tested on: CCRF-CEM
# assay_method_text: […] activity against human CCRF-CEM cells
# Type: functional, cell-based
quantity: IC50 (µM)

1. C1=C\CCCCN2CC[C@@H]3[C@@H](CCCC/C=C\CCCCN4C[C@H](CCCC/1)C[C@H]3C4)C2 | 2
